These data points were gathered from patent US7348328B2.

List of pKi values.
- TARGET_ENTITY: MCH receptor (Homo sapiens, UniProt Q99705)
- Construct: expressed in transfected cells; host or cells: CHO cells (membranes)
- Sequence (Q99705 whole entry): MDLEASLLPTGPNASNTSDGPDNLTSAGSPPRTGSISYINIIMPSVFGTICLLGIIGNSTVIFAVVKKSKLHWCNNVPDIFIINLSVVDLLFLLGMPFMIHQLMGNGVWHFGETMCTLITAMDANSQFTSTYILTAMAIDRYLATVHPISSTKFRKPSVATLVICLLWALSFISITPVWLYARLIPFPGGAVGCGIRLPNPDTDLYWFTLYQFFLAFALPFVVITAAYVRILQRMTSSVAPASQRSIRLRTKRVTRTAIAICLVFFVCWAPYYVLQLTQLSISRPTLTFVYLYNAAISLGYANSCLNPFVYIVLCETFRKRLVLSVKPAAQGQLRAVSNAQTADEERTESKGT
- METHOD_NOTES: MCH Receptor Binding Assay
- CONDITION_PARAMETERS: Table 1b, preferred compounds; read-out: MCH R1 Ki
Schema: pKi number; meaning minus log10 of the concentration expressed in molar units.

Solved entries (count: 2):
COMPOUND	pKi
N#Cc1cccc([C@@]23CC[C@@H](N(CCN4C[C@H]5C[C@H]5[C@H]4CO)C(=O)Nc4cc(Cl)nc(Cl)c4)CC2C3)c1 (stereo partly drawn)	8.52
CC(=O)Nc1cccc([C@@]23CC[C@@H](N(CCCN4CCN(C)CC4)C(=O)Nc4ccc(F)c(Cl)c4)CC2C3)c1 (stereo partly drawn)	9.05

Shift focus to the following entry.
Q: I am curious: what pKi value has been reported for CC(C)N(CCN(C(=O)Nc1ccsc1)[C@H]1CC[C@]2(c3cccc(C#N)c3)CC2C1)C(C)C (stereo partly drawn) ?
Ans: 7.95

---

- TARGET_ENTITY: MCH receptor (Homo sapiens, UniProt Q99705)
- Construct: expressed in transfected cells; host or cells: CHO cells (membranes)
- METHOD_NOTES: MCH Receptor Binding Assay
- CONDITION_PARAMETERS: Binding Activity; membranes from CHO cells expressing the MCH receptor, [125I]-MCH; read-out: MCH Ki
RESULT_TYPE: Ki (nM)
Lab book: enter the figure in nM, no units written.

Q: What value of Ki has been recorded for this entry: O=C(Nc1ccc(F)c(C(F)(F)F)c1)N(CCN1CC[C@@H](O)C1)[C@@H]1CC[C@]2(c3cccc(Br)c3)C[C@H]12 [Example 197]
Ans: 79

Q: Requested read-out: Ki. Entry: CC(C)CN1CCN(CCN(C(=O)Nc2ccc(F)c(C(F)(F)F)c2)[C@@H]2CC[C@]3(c4cccc(C#N)c4)C[C@H]23)CC1 [Example 208]
Ans: 9

---

- TARGET_ENTITY: MCH receptor (Homo sapiens, UniProt Q99705)
- Construct: expressed in transfected cells; host or cells: CHO cells (membranes)
- METHOD_NOTES: MCH Receptor Binding Assay
- CONDITION_PARAMETERS: Binding Activity; membranes from CHO cells expressing the MCH receptor, [125I]-MCH; read-out: MCH Ki
- Experimental: MCH Receptor Binding Assay: Membranes from CHO cells expressing the MCH receptor were prepared by lysing cells with 5 mM HEPES for 15 min at 4C. Cell lysates were centrifuged ([…], 15 min) and the pellet was resuspended in 5 mM HEPES. […] Nonspecific binding was determined by including 1 μM MCH in the binding reaction. […] Plates were then analyzed in a TOPCOUNT microplate scintillation counter (Packard). Data was analyzed and Ki values were determined using GraphPad Prim.
# pKi per entry
The scale used: pKi is minus the common logarithm of the concentration in molar units.

# annotated cases, reported pKi shown
COMPOUND	pKi
N#Cc1cccc([C@]23CC[C@@H](N(CCCCN4CCCCC4)C(=O)Nc4ccc(F)c(C(F)(F)F)c4)[C@H]2C3)c1 [Example 227]	8.80
N#Cc1cccc([C@]23CC[C@@H](N(CCN4CCN(CC5CC5)CC4)C(=O)Nc4ccc(F)c(C(F)(F)F)c4)[C@H]2C3)c1 [Example 209]	8.00
N#Cc1cccc([C@]23CC[C@@H](N(CCN4CC[C@@H](O)C4)C(=O)Nc4ccc(F)c(C(F)(F)F)c4)[C@H]2C3)c1 [Example 198]	7.96
N#Cc1cccc([C@]23CC[C@@H](N(CCCCN4CCOCC4)C(=O)Nc4ccc(F)c(C(F)(F)F)c4)[C@H]2C3)c1 [Example 225]	8.59
N#Cc1cccc([C@@]23CCC(N(CCN4CC[C@@H](O)C4)C(=O)Nc4ccc(F)c(Cl)c4)[C@@H]2C3)c1 (stereo partly shown) [Example 190]	7.89

Q: # get_value(readout='pKi', item= N#Cc1cccc([C@]23CC[C@@H](N(CCN4CCCC4)C(=O)Nc4cc(Cl)cc(Cl)c4)[C@H]2C3)c1 [Example 188] )
Ans: 7.82

Q: Recorded pKi for CN(C)CCCCN(C(=O)Nc1ccc(F)c(Cl)c1)[C@@H]1CC[C@]2(c3cccc(C#N)c3)C[C@H]12 [Example 195] , please?
Ans: 8.00

---

- TARGET_ENTITY: MCH receptor (Homo sapiens, UniProt Q99705)
- Construct: expressed in transfected cells; host or cells: CHO cells (membranes)
- METHOD_NOTES: MCH Receptor Binding Assay
- CONDITION_PARAMETERS: Table 1b, preferred compounds; read-out: MCH R1 Ki
- Method: MCH Receptor Binding Assay: Membranes from CHO cells expressing the MCH receptor were prepared by lysing cells with 5 mM HEPES for 15 min at 4C. Cell lysates were centrifuged ([…], 15 min) and the pellet was resuspended in 5 mM HEPES. […] Nonspecific binding was determined by including 1 μM MCH in the binding reaction. […] Plates were then analyzed in a TOPCOUNT microplate scintillation counter (Packard). Data was analyzed and Ki values were determined using GraphPad Prim.
Entries and their pKi
Keep it numeric: pKi is minus log10 of the concentration in mol/L.

# example entries with known answers
COMPOUND	pKi
N#Cc1ccc(C2=CCC(N(CCN3CCCC3)C(=O)Nc3ccc(F)c(Cl)c3)CC2)cc1 (stereo not shown)	7.96
N#Cc1cccc([C@@]23CC[C@@H](N(CCCN4CC[C@@H](O)C4)C(=O)Nc4ccc(F)c(F)c4)CC2C3)c1 (stereo partly shown)	8.92

Q: Value wanted: pKi (MCH receptor (Homo sapiens, UniProt Q99705)) of entry CNCCN(C(=O)Nc1ccc(F)c(Cl)c1)[C@@H]1CC[C@@]2(c3cccc(C#N)c3)CC2C1 (stereo partly shown)
Ans: 8.04

Q: Lab note: need pKi with MCH receptor (Homo sapiens, UniProt Q99705) for entry CC(C)N(CCF)CCN(C(=O)Nc1cc(Cl)nc(Cl)c1)[C@@H]1CC[C@@]2(c3cccc(C#N)c3)CC2C1 (stereo partly shown) , please look it up.
Ans: 7.99

Q: Query pKi on MCH receptor (Homo sapiens, UniProt Q99705) for O=C(Nc1ccc(F)c(Cl)c1)N(CCN1CCCC1)C1CC=C(c2cccc(Cl)c2)CC1 (stereo not shown)
Ans: 7.85

Q: Request body: readout pKi, system MCH receptor (Homo sapiens, UniProt Q99705), query CN1CCN(CCCCN(C(=O)Nc2ccc(F)c(Cl)c2)C2CC[C@@]3(c4ccc(C#N)cc4)CC23)CC1 (stereo partly shown) . Return the value.
Ans: 8.54

Q: Can you look up pKi on MCH receptor (Homo sapiens, UniProt Q99705) for CC(C)N(CCN(C(=O)Nc1cccc(F)c1)[C@H]1CC[C@]2(c3cccc(C#N)c3)CC2C1)C(C)C (stereo partly shown) ?
Ans: 8.68

Q: I'm curious: which pKi was measured for N#Cc1cccc([C@]23CC[C@@H](N(CCCCN4CCCC4)C(=O)Nc4ccc(F)c(Cl)c4)[C@H]2C3)c1 [drawing 675] tested on MCH receptor (Homo sapiens, UniProt Q99705)?
Ans: 8.41

Q: Find pKi (MCH receptor (Homo sapiens, UniProt Q99705)) for the entry CS(=O)(=O)N1CCC(CN(C(=O)Nc2ccc(F)c(C(F)(F)F)c2)[C@@H]2CC[C@@]3(c4cccc(C#N)c4)CC3C2)CC1 (stereo partly shown)
Ans: 7.59

Q: Tell me reported pKi for N#Cc1cccc([C@@]23CC[C@@H](N(CCCN4CCC4)C(=O)Nc4ccc(F)c(F)c4)CC2C3)c1 (stereo partly shown) , tested with MCH receptor (Homo sapiens, UniProt Q99705).
Ans: 8.43

Q: Can you look up pKi on MCH receptor (Homo sapiens, UniProt Q99705) for CC1(C)[C@H]2[C@@H](CO)N(CCCCN(C(=O)Nc3ccc(F)c(C(F)(F)F)c3)[C@@H]3CC[C@@]4(c5ccc(C#N)cc5)C[C@H]34)C[C@H]21 ?
Ans: 8.10

---

- TARGET_ENTITY: MCH receptor (Homo sapiens)
- Construct: expressed in transfected cells; host or cells: CHO cells (membranes)
- METHOD_NOTES: MCH Receptor Binding Assay
- CONDITION_PARAMETERS: Binding Activity; membranes from CHO cells expressing the MCH receptor, [125I]-MCH; read-out: MCH Ki
Listed below: Ki values for each entry.
Could you give the number and then its unit, please?

As a guide, the following entries are already answered.
MOLECULE	MEASURED
N#Cc1cccc([C@@]23CCC(N(CCN4CC[C@@H](O)C4)C(=O)Nc4ccc(F)c(C(F)(F)F)c4)[C@@H]2C3)c1 (stereo partly shown)	23 nM
N#Cc1cccc([C@]23CC[C@@H](N(CCN4CCCCC4)C(=O)Nc4ccc(F)c(Cl)c4)[C@H]2C3)c1	4.1 nM
N#Cc1cccc([C@]23CC[C@@H](N(CCN4CC[C@@H](O)C4)C(=O)Nc4ccc(F)c(C(F)(F)F)c4)[C@H]2C3)c1 [Example 193]	7.1 nM

Now consider a different molecule.
Q: Notebook: pull reported Ki for MCH receptor (Homo sapiens), entry N#Cc1cccc([C@]23CC[C@@H](N(CCN4CCCC4)C(=O)Nc4ccc(F)c(Cl)c4)[C@H]2C3)c1
Ans: 18 nM
